Below is a list of entries, each paired with its recorded koff value.
# TARGET_SYSTEM: T1, human common cytokine receptor γ-chain (IL-2Rγ) (human, UniProt P31785 23-262, limits assumed)
# T1 construct: Recombinant human IL-2Rγ protein, coated (ELISA) or amine-coupled to a CM5 chip (SPR); also called hu IL-2R; CD132
# T1 sequence: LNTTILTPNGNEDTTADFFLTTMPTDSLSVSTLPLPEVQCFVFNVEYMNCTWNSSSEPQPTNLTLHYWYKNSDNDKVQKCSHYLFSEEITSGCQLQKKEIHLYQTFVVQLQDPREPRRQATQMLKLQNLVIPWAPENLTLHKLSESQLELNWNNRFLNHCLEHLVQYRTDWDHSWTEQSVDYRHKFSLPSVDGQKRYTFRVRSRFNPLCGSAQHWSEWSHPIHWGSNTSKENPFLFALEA
# PROTOCOL_TEXT: P.E. off-rate SPR
# Protocol: SPR was performed to determine dissociation rates using Biacore 3000 instrument (GE Healthcare). Briefly, human and mouse IL-2R proteins were immobilized on carboxylmethyl dextran sensor chip (CM5) at approximately 2500 RUs using amine coupling in acetate buffer (GE Healthcare). The VHH-containing P.E. were loaded with a flow rate of 30 uL/min and the off-rates were measured over a 120s period.
Report only the number, with the unit s⁻¹ understood.

(Q) May I ask what koff has been recorded for FJ1427_P035MP07D02 (VHH, tested as periplasmic extract; also called Clone nr; 588) VHH: QVQLQESGGGLVQAGGSLRLSCAASGRALSRLAMGWFRQAPGKEREFVVASSWGDDTFYADSVKGRFTFSRDNAKNTVYLQMNSLQPGDTAVYYCAAAPTSFATTAYSSSNSYAYWGQGTQVTVSS ?
(A) 0.00152

---
(Q) May I ask what koff has been recorded for FJ1427_P035MP07B06 (VHH, tested as periplasmic extract; also called Clone nr; 618) VHH: EVQLVESGGGLVQAGGSLRLSCAASGRTLSRYAMGWFRQAPGKEREFVTANSWGGDTYYADSVQGRFTFSRDNAKNTVYLQMNSLQPEDTAVYYCAAAPTSFATTAYSSSNSYAYWGQGTQVTVSS ?
(A) 0.00322
